The reported numbers originate from PubChem BioAssay.

composite z-score values for the compounds below.
- Test system: Plasmodium falciparum Sir2 (PF13_0152, Sir2A)
- Protocol notes: pfSir2 binders on small-molecule microarrays, primary screen, biochemical, small-molecule microarray, 635 nm fluorescence (AID 1098);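 further: score merges spot fluorescence intensity with its signal-to-noise ratio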
- Particulars: small-molecule microarray binding, fluorescence 635 nm; higher = more signal
Output spec: single numeric token, no unit.

Example results:
[[record]]
chemical_string = "COC(=O)[C@@]1(Cc2ccccc2CN=[N+]=[N-])N=C(c2ccc(OCCCO)cc2)O[C@H]1c1ccccc1N=[N+]=[N-]"
measurement_label = "composite z-score"
measured_result = 1.31

[[record]]
chemical_string = "CCCC=C(CCC)[C@@H](NS(=O)(=O)c1cccc(C(F)(F)F)c1)c1ccc(C(=O)OC)cc1"
measurement_label = "composite z-score"
measured_result = 0.935

[[record]]
chemical_string = "COc1ccc(-c2ccccc2[C@@H]2N[C@H](C(=O)O)CC[C@H]2C)cc1"
measurement_label = "composite z-score"
measured_result = 0.0888

[[record]]
chemical_string = "O=C/C=C/c1ccc(/C=C/c2ccccc2)cc1"
measurement_label = "composite z-score"
measured_result = -0.636

[[record]]
chemical_string = "CCCC/C=C/[C@H]([C@@H](O)Cc1ccccc1)N(CC#Cc1ccccc1)Cc1ccccc1Br"
measurement_label = "composite z-score"
measured_result = -0.488

[[record]]
chemical_string = "CO[C@H]1COC(=O)[C@H](C)NC(=O)CC=C[C@@H](C)[C@H](NS(=O)(=O)c2ccc(C)cc2)COC(=O)CC=C[C@@H]1C"
measurement_label = "composite z-score"
measured_result = 0.997

[[record]]
chemical_string = "CCCC=C(CCC)[C@@H](NS(=O)(=O)c1ccc(-c2ccccc2)cc1)c1ccc(C(=O)OC)cc1"
measurement_label = "composite z-score"
measured_result = -0.127


Let us move to another entry and its composite z-score.
Prompt: Could you share which composite z-score value was measured for C=CCNC(=O)[C@H]1[C@@H]2C(=O)O[C@@H](c3ccccc3)[C@@H](c3ccccc3)N2[C@@H](c2ccccc2OCCO)[C@]12C(=O)N(C(=O)OCCOC)c1ccc(C#CCNC(N)=O)cc12 ?
Response: 1.28

* * *

- Protocol notes: binders of probe aFSTL3 on microarray, primary screen, stem cell growth factor project, biochemical, small-molecule microarray, fluorescence 635/667 (AID 1064);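 further: measures binding of the biotinylated anti-FSTL3 antibody to printed compounds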
- Particulars: higher = more signal
Measurement label: composite z-score
Output spec: single numeric token, no unit.

Example results:
[[record]]
compound = "C=C(COC)/C(=C/C[C@@H](OC(=O)c1ccncc1)c1ccc(OCCO)cc1)c1cc(C(=O)OC)ccc1OC"
measurement_label = "composite z-score"
measured_result = -0.202

[[record]]
compound = "CC[C@H]1C2=C3C(CC[C@H]4C(OC)OC[C@](C)([C@@H]34)N(C(=O)OC(C)(C)C)C2)C(CO)C1CO (stereo partly drawn)"
measurement_label = "composite z-score"
measured_result = 1.21

[[record]]
compound = "CCCNC(=O)[C@@H]1c2ccccc2C(=O)N(Cc2cc(F)cc(C(F)(F)F)c2)[C@H]1c1ccc(CO)cc1"
measurement_label = "composite z-score"
measured_result = -0.0356

[[record]]
compound = "CO[C@@H]1COC(=O)[C@@H]2CCCN2C(=O)CC=C[C@@H](C)[C@H](OC)COC(=O)[C@@H]2CCCN2C(=O)CC=C[C@H]1C"
measurement_label = "composite z-score"
measured_result = -0.614

[[record]]
compound = "CCOC(=O)C1=CC[C@@H](c2ccccc2)N(S(=O)(=O)c2ccc(C)cc2)[C@H]1C"
measurement_label = "composite z-score"
measured_result = -0.386

[[record]]
compound = "N#Cc1ccc(NN2C(C(O)c3ccc(I)cc3)C=CC3C(=O)N(c4ccccc4)C(=O)C32)cc1 (stereo not drawn)"
measurement_label = "composite z-score"
measured_result = 0.0909

[[record]]
compound = "COc1ccc(-c2ccccc2[C@@H]2N[C@H](C(=O)O)CC[C@H]2C)cc1"
measurement_label = "composite z-score"
measured_result = -0.285


Let us move to another entry and its composite z-score.
Prompt: Could you share which composite z-score value was measured for O=C1O[C@@H](c2ccccc2)[C@@H](c2ccccc2)N2[C@@H](c3ccc(O)cc3)[C@]3(C(=O)Nc4ccc(C#CC5(O)CCCCCC5)cc43)[C@@H](C(=O)Nc3nc4ccccc4s3)[C@H]12 ?
Response: -0.128
